# TEST DESCRIPTION: Pharmacokinetics in mice after oral or intravenous dosing
# Assay type: in vivo
# ASSAY CONTEXT: mouse, plasma, iv, 10 mg/kg, mice, IV 10 mg/kg, average of 3 mice; read-out: Cl_obs
PROPERTY: clearance
Lab note: write values as number then unit, every time.

QUERY: // clearance lookup, key: C[C@@H]1CN(C)CC[C@@H]1c1cc(-c2ccncc2)c(-c2ccc(F)cc2)[nH]1.Cl.Cl
RESULT: 49.2 mL/min/kg

* * *

Can you tell me IC50 for the items I'm about to list?
# Test system: P. cynomolgi hypnozoite
# TEST DESCRIPTION: Hypnozoite formation in primary simian hepatocytes, high-content imaging
# Type: cell-based, Plasmodium cynomolgi
Just so you know, I need the unit written after the number.

{"MOLECULE": "CN1CCC(c2cc(-c3ccncc3)c(-c3ccc(F)cc3)[nH]2)CC1 [TSP, reference compound]", "PROPERTY": "IC50", "MEASUREMENT": "400 nM"}

// next item, IC50 requested
QUERY: Need IC50, item CNC(=O)c1ccc(-c2cnc3cnc(C(=O)N(C)c4ccc(Cl)cc4)cn23)cc1 [KDU-691]
RESULT: 110 nM
